Source listed as ChEMBL document CHEMBL5113372.

Target Or Test System: Histone deacetylase 1 (Homo sapiens, UniProt Q13547)
Sequence (Q13547 whole entry, the tested form may be a part): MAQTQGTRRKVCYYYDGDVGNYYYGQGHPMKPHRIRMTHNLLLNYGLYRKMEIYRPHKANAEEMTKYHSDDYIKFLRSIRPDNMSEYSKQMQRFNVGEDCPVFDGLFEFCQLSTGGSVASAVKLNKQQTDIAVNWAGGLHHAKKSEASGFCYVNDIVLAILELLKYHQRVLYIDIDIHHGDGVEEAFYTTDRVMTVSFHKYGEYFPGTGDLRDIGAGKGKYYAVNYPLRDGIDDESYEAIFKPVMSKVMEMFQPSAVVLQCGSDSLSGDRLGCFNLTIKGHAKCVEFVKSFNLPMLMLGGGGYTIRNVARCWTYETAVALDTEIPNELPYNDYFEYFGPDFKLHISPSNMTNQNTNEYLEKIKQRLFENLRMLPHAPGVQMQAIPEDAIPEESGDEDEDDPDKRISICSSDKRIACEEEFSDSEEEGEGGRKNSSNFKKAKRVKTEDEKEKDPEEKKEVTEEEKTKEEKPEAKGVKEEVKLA
Procedure Summary: Inhibition of HDAC1 (unknown origin) using Boc-Lys(Ac)-7-amino-4-methylcoumarin (BocLys(Ac)-AMC) as substrate incubated for 30 mins by fluorescence based assay
Experimental Endpoint: IC50

Query: Give IC50 (Histone deacetylase 1 (Homo sapiens, UniProt Q13547)) of the following compound: CCC(CC)(c1ccc(OCC(=O)NO)c(C)c1)c1ccc(OCC(O)C(C)(C)C)c(C)c1 (stereo unspecified)
Reply: 14.3 µM

###

System: MCF7
Procedure Summary: Antiproliferative activity against human MCF7 cells assessed as cell growth inhibition incubated for 72 hrs by CCK-8 assay
Assay type: functional, cell-based
Test Parameters: MCF7, 72 h
Experimental Endpoint: IC50 (nM)
Express it in nM; write the number only.

Query: What IC50 appears in the records for this molecule with MCF7? C[C@H]1COc2c(N3CCN(C)CC3)c(F)cc3c(=O)c(C(=O)NCC4CN(CC(=O)NO)N=N4)cn1c23 (stereo partly specified)
Reply: 300

###

Target Or Test System: Protein deacetylase HDAC6 (Homo sapiens, UniProt Q9UBN7)
Sequence (Q9UBN7 whole entry): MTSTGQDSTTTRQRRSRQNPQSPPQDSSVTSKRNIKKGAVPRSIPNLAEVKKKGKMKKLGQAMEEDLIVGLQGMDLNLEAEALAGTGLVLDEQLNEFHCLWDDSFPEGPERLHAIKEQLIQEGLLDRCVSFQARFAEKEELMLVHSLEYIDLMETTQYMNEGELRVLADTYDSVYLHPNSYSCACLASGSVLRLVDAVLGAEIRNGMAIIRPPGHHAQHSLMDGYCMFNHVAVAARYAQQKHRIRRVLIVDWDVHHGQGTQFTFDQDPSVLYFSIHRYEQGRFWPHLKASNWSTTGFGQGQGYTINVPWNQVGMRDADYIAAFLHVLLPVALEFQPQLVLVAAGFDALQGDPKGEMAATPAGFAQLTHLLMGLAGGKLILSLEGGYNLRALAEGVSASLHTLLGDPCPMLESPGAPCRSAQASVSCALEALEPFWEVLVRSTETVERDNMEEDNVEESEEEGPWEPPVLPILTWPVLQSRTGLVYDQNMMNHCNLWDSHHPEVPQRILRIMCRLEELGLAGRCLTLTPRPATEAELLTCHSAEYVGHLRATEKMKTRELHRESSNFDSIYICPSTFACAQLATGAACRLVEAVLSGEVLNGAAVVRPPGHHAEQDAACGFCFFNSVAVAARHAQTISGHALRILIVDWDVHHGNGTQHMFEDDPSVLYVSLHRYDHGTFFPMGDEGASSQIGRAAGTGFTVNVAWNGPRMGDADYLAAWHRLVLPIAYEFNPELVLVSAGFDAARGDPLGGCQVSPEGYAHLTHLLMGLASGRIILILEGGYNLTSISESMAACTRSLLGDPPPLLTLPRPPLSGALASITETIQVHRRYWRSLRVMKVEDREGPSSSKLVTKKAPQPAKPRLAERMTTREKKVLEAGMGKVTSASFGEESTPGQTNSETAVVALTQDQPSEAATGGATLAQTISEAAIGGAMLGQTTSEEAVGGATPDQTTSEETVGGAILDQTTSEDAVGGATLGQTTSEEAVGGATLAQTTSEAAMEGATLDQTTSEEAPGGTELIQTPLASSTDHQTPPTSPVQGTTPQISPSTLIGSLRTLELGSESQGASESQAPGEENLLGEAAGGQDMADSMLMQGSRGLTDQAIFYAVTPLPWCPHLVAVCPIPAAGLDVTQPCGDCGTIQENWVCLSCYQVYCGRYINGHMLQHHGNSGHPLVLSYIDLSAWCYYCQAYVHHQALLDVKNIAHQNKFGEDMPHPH
Procedure Summary: Inhibition of recombinant human HDAC6 expressed in baculovirus infected Hi-5 insect cells using Boc-Lys (epsilon-acetyl)-AMC as substrate incubated for 3 to 24 hrs by fluorescence based assay
Experimental Endpoint: pIC50
Note: pIC50 values are expressed as the negative base-10 logarithm of concentration in M.

Query: What measured pIC50 is associated with COCCOc1cc2ncnc(Nc3ccc(/C=C/C(=O)NO)cc3)c2cc1OCCOC on Protein deacetylase HDAC6 (Homo sapiens, UniProt Q9UBN7)?
Reply: 5.56

###

Test system: DU-145
Procedure Summary: Antiproliferative activity against human DU-145 assessed as inhibition of cell viability incubated for 72 hrs by MTT/MTS assay
Assay type: functional, cell-based
Test Parameters: DU-145, 72 h
Experimental Endpoint: IC50 (nM)
Expressed in nM, but write only the number.

Query: For CC1(C)C(=O)N(c2ccc(C#N)c(C(F)(F)F)c2)C(=O)N1Cc1ccc(-c2cn(CCCCCCC(=O)NO)nn2)cc1 , what is its reported IC50?
Reply: 1000

###

Target Or Test System: Histone deacetylase 1 (Homo sapiens)
Procedure Summary: Inhibition of C-terminal 6xHis/FLAG-tagged full-length recombinant human HDAC1 (1 to 482 residues) expressed in Sf9 insect cells using fluorogenic substrate incubated for 30 mins by fluorescence based plate reader analysis
Experimental Endpoint: pIC50
The meaning of pIC50 here: minus log10 of the concentration in molar units.

Query: Returns the measured pIC50 for the input compound. Input: CCCc1nn(C)c2c(=O)[nH]c(-c3cc(CC4CC(C(=O)NO)C4)ccc3OCC)nc12 (stereo unspecified)
Reply: 6.51

###

Tested on: A-431
Procedure Summary: Cytotoxicity against human A-431 cells assessed as cell growth inhibition
Format: functional, cell-based
Experimental Endpoint: IC50

Query: Could you tell me which IC50 is on file for O=C(CCCCCCN1CC(c2ccc3ncnc(Nc4ccc(Br)cc4F)c3c2)N=N1)NO (stereo unspecified) ?
Reply: 260 nM

###

Test system: A549
Procedure Summary: Antiproliferative activity against human A549 cells assessed as inhibition of cell viability treated for 12 to 48 hrs by MTT assay
Assay type: functional, cell-based
Experimental Endpoint: IC50 (µM)
Give your result in µM as a bare value.

Query: Consider the compound shown here: C=C(c1ccc(C(=O)NO)cc1)c1cc2c(cc1C)C(C)(C)CCC2(C)C What is its recorded IC50?
Reply: 4.9
